- SYSTEM UNDER TEST: SMARCA4 (Homo sapiens)
- Construct: endogenous in cells
- Sequence (P51532 whole entry, species assumed): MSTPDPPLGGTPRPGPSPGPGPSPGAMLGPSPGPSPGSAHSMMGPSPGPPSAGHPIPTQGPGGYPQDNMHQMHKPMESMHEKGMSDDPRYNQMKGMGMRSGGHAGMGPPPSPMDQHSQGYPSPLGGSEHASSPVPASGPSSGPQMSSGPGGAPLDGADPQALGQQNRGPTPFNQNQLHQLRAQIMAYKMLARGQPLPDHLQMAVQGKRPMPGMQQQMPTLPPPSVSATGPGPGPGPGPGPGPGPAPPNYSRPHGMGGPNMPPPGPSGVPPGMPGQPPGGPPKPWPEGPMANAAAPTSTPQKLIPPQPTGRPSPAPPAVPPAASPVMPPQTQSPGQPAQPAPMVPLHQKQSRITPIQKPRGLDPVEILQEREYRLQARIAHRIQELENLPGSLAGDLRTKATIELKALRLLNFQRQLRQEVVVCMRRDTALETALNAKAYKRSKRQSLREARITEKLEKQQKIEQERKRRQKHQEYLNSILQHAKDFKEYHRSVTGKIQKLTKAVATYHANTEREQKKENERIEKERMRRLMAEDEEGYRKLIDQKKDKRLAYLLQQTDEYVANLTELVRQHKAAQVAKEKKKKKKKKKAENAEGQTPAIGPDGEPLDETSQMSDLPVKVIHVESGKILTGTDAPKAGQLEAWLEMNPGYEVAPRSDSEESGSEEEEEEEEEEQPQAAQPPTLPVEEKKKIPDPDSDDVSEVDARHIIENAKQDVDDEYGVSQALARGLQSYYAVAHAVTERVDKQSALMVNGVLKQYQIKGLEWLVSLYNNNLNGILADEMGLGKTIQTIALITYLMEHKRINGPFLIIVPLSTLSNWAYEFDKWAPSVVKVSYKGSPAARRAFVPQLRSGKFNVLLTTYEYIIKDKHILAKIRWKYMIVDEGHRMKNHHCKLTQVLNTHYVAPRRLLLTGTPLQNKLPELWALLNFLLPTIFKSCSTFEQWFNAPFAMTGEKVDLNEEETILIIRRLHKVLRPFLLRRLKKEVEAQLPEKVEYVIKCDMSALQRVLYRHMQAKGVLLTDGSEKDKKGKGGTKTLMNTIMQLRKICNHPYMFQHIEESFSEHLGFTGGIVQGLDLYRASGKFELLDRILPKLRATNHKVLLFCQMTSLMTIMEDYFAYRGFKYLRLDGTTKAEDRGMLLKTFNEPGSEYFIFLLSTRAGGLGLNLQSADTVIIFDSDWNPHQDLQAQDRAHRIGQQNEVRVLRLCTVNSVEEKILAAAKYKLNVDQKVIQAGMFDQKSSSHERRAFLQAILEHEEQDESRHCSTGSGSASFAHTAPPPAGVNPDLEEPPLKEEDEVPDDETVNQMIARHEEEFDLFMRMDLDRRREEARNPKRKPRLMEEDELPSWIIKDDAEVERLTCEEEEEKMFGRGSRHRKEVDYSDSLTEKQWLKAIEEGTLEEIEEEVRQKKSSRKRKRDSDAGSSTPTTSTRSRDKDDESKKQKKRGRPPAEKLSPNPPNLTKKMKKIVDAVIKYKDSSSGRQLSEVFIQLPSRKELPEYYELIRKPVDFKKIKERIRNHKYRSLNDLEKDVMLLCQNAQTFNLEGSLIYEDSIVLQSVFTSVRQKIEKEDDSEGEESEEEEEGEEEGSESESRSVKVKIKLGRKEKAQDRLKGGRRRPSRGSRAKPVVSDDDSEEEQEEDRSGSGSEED
- TEST METHOD NOTES: Cellular degradation assay, SMARCA4 (Table 1)
- Assay type: cell-based
Reported DC50 values for the following compounds.

Memo: O=C1CC[C@H](c2ccc(N3CCC(CCN4CCC(N(C(=O)C5(c6ccccc6)CCN(c6cnnc(-c7ccccc7O)c6)CC5)C5CC5)CC4)CC3)cc2)C(=O)N1 , reported DC50: 59.3 nM

Continuing:
Quick note, DC50 for Cc1cccc(C2(C(=O)N3CC4(CN(CC5CCN(c6ccc(C7CCC(=O)NC7=O)cc6)CC5)C4)C3)CCN(c3cnnc(-c4ccccc4O)c3)CC2)c1 (racemic) landed at 83.4 nM

DC50 reported for this compound COc1cccc(C2(C(=O)N(C)C3CCN(CCC4CCN(c5ccc([C@H]6CCC(=O)NC6=O)cc5)CC4)CC3)CCN(c3cnnc(-c4ccccc4O)c3)CC2)c1 : 167 nM

# compound CN(CC1(c2ccccc2)CCN(c2cnnc(-c3ccccc3O)c2)CC1)C(=O)C1CCN(CCC2CCN(c3ccc([C@H]4CCC(=O)NC4=O)cc3)CC2)C2(CCC2)C1 (mixture of isomers) ; its DC50 = 21.9 nM

For this compound ( CCCN(C(=O)C1(c2ccccc2)CCN(c2cnnc(-c3ccccc3O)c2)CC1)C1CCN(CCC2CCN(c3ccc([C@H]4CCC(=O)NC4=O)cc3)CC2)CC1 ), measured DC50 is 115 nM
